# assay system: T1, human GIP receptor (human) (UniProt P48546)
# T1 sequence (looked up): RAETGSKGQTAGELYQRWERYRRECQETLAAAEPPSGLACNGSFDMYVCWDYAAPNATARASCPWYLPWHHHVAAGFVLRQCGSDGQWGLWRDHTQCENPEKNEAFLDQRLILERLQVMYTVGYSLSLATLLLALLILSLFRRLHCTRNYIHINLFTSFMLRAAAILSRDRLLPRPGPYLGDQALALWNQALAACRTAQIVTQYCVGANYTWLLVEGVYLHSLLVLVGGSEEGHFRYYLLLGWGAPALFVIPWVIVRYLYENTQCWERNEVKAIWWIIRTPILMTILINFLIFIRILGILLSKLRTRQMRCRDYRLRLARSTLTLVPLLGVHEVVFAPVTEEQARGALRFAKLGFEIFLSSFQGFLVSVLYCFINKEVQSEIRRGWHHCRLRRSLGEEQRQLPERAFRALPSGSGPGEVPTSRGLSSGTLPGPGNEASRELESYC
# procedure text: cell-based or functional assay
Starred links: 1 amine or outer side, 2 acyl side, 3 side chain; linkers in the order of their positions; H or OH if unused. Non-standard residues stand in square brackets, D forms with d. Groups on a side chain read outwards from the residue. No end group written: not given here. *: point of attachment. C20 diacid = O=C(O)CCCCCCCCCCCCCCCCCCC(=O)*; Phe(4-CN) = N#Cc1ccc(C[C@H](N)C(=O)O)cc1; αMePhe(2-F) = C[C@](N)(Cc1ccccc1F)C(=O)O; γGlu = O=C(O)[C@H](CCC(=O)[*:2])N[*:1]; NMeY = CN[C@@H](Cc1ccc(O)cc1)C(=O)O; αMeF = C[C@](N)(Cc1ccccc1)C(=O)O; AEEA = NCCOCCOCC(=O)O; Aib = CC(C)(N)C(=O)O
assay endpoint: log10(Relative cAMP EC50) (log10 of the value in pM)
Field: value | Transform: log10 | Quantity: Relative cAMP EC50 | Unit: pM

For orientation, consider the following solved cases.
binder: [NMeY][Aib]QGT[αMeF]TSDYSILLDKQAAK([AEEA-AEEA-γGlu-C20 diacid])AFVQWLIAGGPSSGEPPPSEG-NH2 [Example 301]
log10(Relative cAMP EC50): 2.86
//
binder: YXQGTXTSDYSIXLDKKAQXAFIEYLEEGGPSSGAPPPSE (synthetic construct; SITE 2: note = 2-Aminoisobutyric Acid; SITE 6: note = alpha-methyl-2-fluoro-L-phenylalanine; SITE 13: note = alpha-methyl-leucine; SITE 17: note = Lysine is chemically modified through conjugation of the epsilon-amino group of the Lysine side chain with (2-[2-(2-Amino-ethoxy)-et)) [Example 424]
log10(Relative cAMP EC50): 1.19
//
binder: YXQGTFTSDFSQXLDKKAQXAFIEYLIEXGESSGAPPPSGS (non-natural residues (Aib, αMeL, αMe4Pal); lipidated K; C-terminal amide; synthetic construct; SITE 2: note = 2-Aminoisobutyric Acid; SITE 13: note = alpha-methyl-leucine; SITE 17: note = Lysine is chemically modified through conjugation of the epsilon-amino group of the Lysine side chain with (2-[2-(2-Amino-ethoxy)-ethoxy]-acetyl)-(gamma-Glu)-CO-(CH2) 16-CO2H; SITE 20: n) [Example 232]
log10(Relative cAMP EC50): 2.01
//
binder: Y[Aib]QGT[αMePhe(2-F)]TSD[Phe(4-CN)]SKLLDKIAQK([AEEA-γGlu-C20 diacid])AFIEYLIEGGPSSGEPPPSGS-NH2 [Example 364]
log10(Relative cAMP EC50): 2.66

Recorded log10(Relative cAMP EC50) for YXQGTXTSDXSIXLDKKAQXAFIEYLEEGGPSSGEPPPSGEGE (non-natural residues; lipidated Lys; C-terminal amide; synthetic construct; SITE 2: note = 2-Aminoisobutyric Acid; SITE 6: note = alpha-methyl-2-fluoro-L-phenylalanine; SITE 10: note = 3-(4-Pyridyl)-L-alanine; SITE 13: note = alpha-methyl-leucine; SITE 17: note = Lysine is chemically modified through conjugation of the epsilon-amino group of the Lysine) [Example 625] , please? 1.46

May I ask what log10(Relative cAMP EC50) has been recorded for Y[Aib]QGT[αMePhe(2-F)]TSDYSKLLDKIAQKAFIEYLIEGGPSSGAPPPSGE-NH2 (not fully specified (residue 20)) [Example 356] ? 1.79

Recorded log10(Relative cAMP EC50) of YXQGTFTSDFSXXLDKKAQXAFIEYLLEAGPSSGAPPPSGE (synthetic construct; SITE 2: note = 2-Aminoisobutyric Acid; SITE 12: note = L-ornithine; SITE 13: note = alpha-methyl-leucine; SITE 17: note = Lysine is chemically modified through conjugation of the epsilon-amino group of the Lysine side chain with (2-[2-(2-Amino-ethoxy)-ethoxy]-acetyl)2-(gamma-Glu)) [Example 128] , please. 2.49

Entry YXQGTXTSDXXIXLDXKAQXXFIEXLIEGGPSSGEPPPS (synthetic construct; SITE 2: note = 2-Aminoisobutyric Acid; SITE 6: note = alpha-methyl-2-fluoro-L-phenylalanine; SITE 10: note = 3-(4-Pyridyl)-L-alanine; SITE 11: note = alpha-methyl-L-serine; SITE 13: note = alpha-methyl-leucine; SITE 16: note = L-ornithine; SITE 17: note = Lysine is chemically mo) [Example 375] has what log10(Relative cAMP EC50)? 1.22
